Assignment: determine reported MIC S. pneum AB 34 for the given compounds.
# Tested on: S. pneum AB 34
# PROCEDURE TEXT: MIC, agar incorporation method
# ASSAY CONDITIONS: agar incorporation
Numbers only, in µg/mL.

{"COMPOUND": "CC(=O)NC[C@H]1CN(c2ccc(N3CCN(Cc4ccc(C=NO)o4)CC3)c(F)c2)C(=O)O1 [Compound No. 60]", "UNIT NAME": "µg/mL", "MIC S. pneum AB 34": 8}

Can you give me MIC S. pneum AB 34 for all of these, one by one?
1. CC(=O)NC[C@H]1CN(c2ccc(N3C[C@@H]4[C@@H](CN(C)C(=O)Cc5cccs5)[C@@H]4C3)c(F)c2)C(=O)O1 [Compound No. 38]
2. CC(=O)NC[C@H]1CN(c2ccc(N3CCN(Cc4ccc(Cl)s4)CC3)c(F)c2)C(=O)O1 [Compound No. 10]
3. COC(=O)Cc1ccc(NC(=O)ON=Cc2ccc(CN3CCN(c4ccc(N5C[C@H](CNC(C)=O)OC5=O)cc4F)CC3)o2)cc1 [Compound No. 61]
4. CC(=O)NC[C@H]1CN(c2ccc(N3CCN(C(=O)C(=O)c4cccs4)CC3)c(F)c2)C(=O)O1 [Compound No. 07]
5. CC(=O)NC[C@H]1CN(c2ccc(N3CCN(Cc4ccc([N+](=O)[O-])o4)CC3)c(F)c2)C(=O)O1.O=C(O)CC(O)(CC(=O)O)C(=O)O [Compound No. 17]

1
8
8
2
1

====

# System: Prevotella bivia
# PROCEDURE TEXT: Agar dilution MIC, anaerobes
# Format: cell-based
# ASSAY CONDITIONS: Prevotella bivia; single isolate, anaerobic agar dilution; read-out: MIC Prevotella bivia
ASSAY READOUT: MIC (µg/mL)
Answers are plain numbers, in µg/mL.

Solved cases below.
{"MOLECULE": "C[C@@H](O)[C@H]1C(=O)N2C(C(=O)O)=C(SCCN=CN)C[C@H]12", "UNIT NAME": "µg/mL", "MIC": 0.03}
{"MOLECULE": "COc1c(N2CCNC(C)C2)c(F)cc2c(=O)c(C(=O)O)cn(C3CC3)c12 (centres unmarked)", "UNIT NAME": "µg/mL", "MIC": 2}
{"MOLECULE": "CC(=O)NC[C@H]1CN(c2ccc(N3CCOCC3)c(F)c2)C(=O)O1", "UNIT NAME": "µg/mL", "MIC": 1}

Consider now this further molecule.
Any idea what MIC was measured for `Cc1ncc([N+](=O)[O-])n1CCO` ? 1

====

# System: MRSA 562
# PROCEDURE TEXT: MIC, agar incorporation method
# ASSAY CONDITIONS: MRSA 562; Table 5
ASSAY READOUT: MIC (µg/mL)
One number for each entry, in µg/mL.

Solved cases below.
{"MOLECULE": "CC(=O)NC[C@H]1CN(c2ccc(N3CCN(Cc4ccc([N+](=O)[O-])o4)CC3)c(F)c2)C(=O)O1", "UNIT NAME": "µg/mL", "MIC": 2}
{"MOLECULE": "CC(=O)NC[C@H]1CN(c2ccc(N3CCN(C(=O)c4ccoc4)CC3)c(F)c2)C(=O)O1", "UNIT NAME": "µg/mL", "MIC": 1}
{"MOLECULE": "CC(=O)NC[C@H]1CN(c2ccc(N3CCN(C(=O)C(=O)c4cccs4)CC3)c(F)c2)C(=O)O1", "UNIT NAME": "µg/mL", "MIC": 2}

Can you give me MIC for all of these, one by one?
1. CC(=O)NC[C@H]1CN(c2ccc(N3CCN(C(=O)c4ccc([N+](=O)[O-])o4)CC3)c(F)c2)C(=O)O1
2. CC(=O)NC[C@H]1CN(c2ccc(N3CC4C(C3)C4N(C)C(=O)Cc3cccs3)c(F)c2)C(=O)O1 (stereo partly drawn)
3. CC(=O)NC[C@H]1CN(c2ccc(N3CCN(Cc4ccc(NC=O)o4)CC3)c(F)c2)C(=O)O1
4. CC(=O)NC[C@H]1CN(c2ccc(N3CCC(N(C)Cc4ccc([N+](=O)[O-])o4)CC3)c(F)c2)C(=O)O1

1
4
2
0.5

====

# System: G +ve bacteria
# PROCEDURE TEXT: Summary of in vitro activity (MIC)
# ASSAY CONDITIONS: G +ve, Number 49
ASSAY READOUT: MIC50
Be sure to follow the number with its unit.

{"MOLECULE": "CC(=O)NC[C@H]1CN(c2ccc(N3CCC(N(C)Cc4ccc([N+](=O)[O-])o4)CC3)c(F)c2)C(=O)O1", "MIC50": "1 µg/mL"}
{"MOLECULE": "CC(=O)NC[C@H]1CN(c2ccc(N3CC4C(CN(C)Cc5ccc([N+](=O)[O-])o5)C4C3)c(F)c2)C(=O)O1 (stereo partly shown)", "MIC50": "1 µg/mL"}
{"MOLECULE": "CC(=O)NC[C@H]1CN(c2ccc(N3CCN(Cc4ccc([N+](=O)[O-])o4)CC3)c(F)c2)C(=O)O1", "MIC50": "1 µg/mL"}

Consider now this further molecule.
Any idea what MIC50 was measured for CC1(C)S[C@@H]2[C@H](NC(=O)Cc3ccccc3)C(=O)N2[C@H]1C(=O)O [Penicillin G, reference compound] ? 4 µg/mL

====

Assignment: determine reported MIC90 for the given compounds.
# System: S. aureus
# PROCEDURE TEXT: Summary of in vitro activity (MIC)
# ASSAY CONDITIONS: S. aureus, Number 8

Solved cases below.
{"COMPOUND": "CC(=O)NC[C@H]1CN(c2ccc(N3CCN(Cc4ccc([N+](=O)[O-])o4)CC3)c(F)c2)C(=O)O1 [Compound No. 15]", "MIC90": "2 µg/mL"}
{"COMPOUND": "CC(=O)NC[C@H]1CN(c2ccc(N3CCN(C(=O)c4ccc([N+](=O)[O-])o4)CC3)c(F)c2)C(=O)O1 [Compound No. 06]", "MIC90": "1 µg/mL"}
{"COMPOUND": "CC(=O)NC[C@H]1CN(c2ccc(N3CCC(N(C)C(=O)c4ccc([N+](=O)[O-])o4)CC3)c(F)c2)C(=O)O1 [Compound No. 44]", "MIC90": "0.25 µg/mL"}

Can you give me MIC90 for all of these, one by one?
1. CC(=O)NC[C@H]1CN(c2ccc(N3CCC(N(C)Cc4ccc([N+](=O)[O-])o4)CC3)c(F)c2)C(=O)O1 [Compound No. 50]
2. CC(=O)NC[C@H]1CN(c2ccc(N3CC4C(CN(C)Cc5ccc([N+](=O)[O-])o5)C4C3)c(F)c2)C(=O)O1 (stereo partly drawn) [Compound No. 40]
3. CC(=O)NC[C@H]1CN(c2ccc(N3CCN(C(=O)c4ccc([N+](=O)[O-])s4)CC3)c(F)c2)C(=O)O1.Cl [Compound No. 29]

1. 2 µg/mL
2. 4 µg/mL
3. 0.25 µg/mL

====

# System: E. faecalis
# PROCEDURE TEXT: Summary of in vitro activity (MIC)
# ASSAY CONDITIONS: E. faecalis
Assignment: determine reported Geometric Mean of in vitro activity (MIC) for the given compounds.
Give bare numbers, in µg/mL.

{"COMPOUND": "CC(=O)NC[C@H]1CN(c2ccc(N3CCN(Cc4ccc([N+](=O)[O-])o4)CC3)c(F)c2)C(=O)O1", "TARGET UNDER TEST": "E. faecalis", "NUMBER": 1.6}
{"COMPOUND": "CC(=O)NC[C@H]1CN(c2ccc(N3CCC(N(C)C(=O)c4ccc([N+](=O)[O-])o4)CC3)c(F)c2)C(=O)O1", "TARGET UNDER TEST": "E. faecalis", "NUMBER": 0.11}
{"COMPOUND": "CC(=O)NC[C@H]1CN(c2ccc(N3CC4C(CN(C)Cc5ccc([N+](=O)[O-])o5)C4C3)c(F)c2)C(=O)O1 (some centres unmarked)", "TARGET UNDER TEST": "E. faecalis", "NUMBER": 2.38}
{"COMPOUND": "CC(=O)NC[C@H]1CN(c2ccc(N3CCN(C(=O)c4ccc([N+](=O)[O-])o4)CC3)c(F)c2)C(=O)O1", "TARGET UNDER TEST": "E. faecalis", "NUMBER": 0.92}

Consider now this further compound.
Any idea what Geometric Mean of in vitro activity (MIC) was measured for `CC(=O)NC[C@H]1CN(c2ccc(N3CCC(N(C)Cc4ccc([N+](=O)[O-])o4)CC3)c(F)c2)C(=O)O1` ? 0.42

====

# Test system: S. pneum AB 34
# PROCEDURE TEXT: MIC, agar incorporation method
# ASSAY CONDITIONS: agar incorporation
Assignment: determine reported MIC S. pneum AB 34 for the given compounds.
Give bare numbers, in µg/mL.

Solved cases below.
{"COMPOUND": "CC(=O)NC[C@H]1CN(c2ccc(N3CCN(C(=O)c4ccc(CCl)o4)CC3)c(F)c2)C(=O)O1 [Compound No. 05]", "UNIT NAME": "µg/mL", "NUMBER": 4}
{"COMPOUND": "CC(=O)NC[C@H]1CN(c2ccc(N3CCN(C(=O)c4ccc(Br)o4)CC3)c(F)c2)C(=O)O1 [Compound No. 04]", "UNIT NAME": "µg/mL", "NUMBER": 1}

Can you give me MIC S. pneum AB 34 for all of these, one by one?
1. CC(=O)NC[C@H]1CN(c2ccc(N3CCN(Cc4ccc([N+](=O)[O-])o4)CC3)c(F)c2)C(=O)O1.Cl [Compound No. 16]
2. CC(=O)NC[C@H]1CN(c2ccc(N3CCC(N(C)Cc4ccc([N+](=O)[O-])o4)CC3)c(F)c2)C(=O)O1 [Compound No. 50]
3. CC(=O)NC[C@H]1CN(c2ccc(N3CCC(N(C)Cc4ccc([N+](=O)[O-])s4)CC3)c(F)c2)C(=O)O1 [Compound No. 51]
4. CC(=O)NC[C@H]1CN(c2ccc(N3CCN(C(=O)c4ccco4)CC3)c(F)c2)C(=O)O1 [Compound No. 01]
5. CC(=O)NC[C@H]1CN(c2ccc(N3C[C@@H]4[C@H](C3)[C@H]4N(C)C(=O)c3ccc(Br)o3)c(F)c2)C(=O)O1 [Compound No. 33]

[1, 2, 2, 1, 4]
